B1: library; numbered along this chain (parent)
chain: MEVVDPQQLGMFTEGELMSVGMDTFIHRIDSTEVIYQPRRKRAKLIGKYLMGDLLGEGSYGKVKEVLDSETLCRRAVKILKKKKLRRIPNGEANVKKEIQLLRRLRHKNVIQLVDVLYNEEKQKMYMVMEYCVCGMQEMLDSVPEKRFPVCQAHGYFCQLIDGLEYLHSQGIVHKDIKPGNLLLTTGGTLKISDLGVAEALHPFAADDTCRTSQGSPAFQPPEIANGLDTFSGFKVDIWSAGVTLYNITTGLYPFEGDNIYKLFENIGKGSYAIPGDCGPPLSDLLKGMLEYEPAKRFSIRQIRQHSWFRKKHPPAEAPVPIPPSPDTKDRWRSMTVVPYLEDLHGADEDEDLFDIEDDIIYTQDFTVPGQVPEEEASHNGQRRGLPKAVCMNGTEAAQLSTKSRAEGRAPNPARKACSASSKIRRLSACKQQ

Variants of: B1
Assay: STK11 functional score (HeLa growth suppression), rescaled enrichment; synonymous median = 1, nonsense median = 0 (normalised score)
Settings: with HeLa; variant type: missense
Mark met for reported STK11 functional score of 1 or greater; mark not met for anything smaller.

>>> label_class("K287V")
"met"
>>> label_class("P387W")
"met"
>>> label_class("L183T")
"met"
>>> label_class("Q220V")
"not met"
>>> label_class("G270V")
"met"
>>> label_class("S283P")
"met"
>>> label_class("E130T")
"met"
>>> label_class("L113P")
"not met"
>>> label_class("D343H")
"not met"
>>> label_class("R384D")
"met"
>>> label_class("K82R")
"met"
>>> label_class("I322E")
"met"
>>> label_class("T186L")
"met"
>>> label_class("L67T")
"not met"
>>> label_class("D348P")
"met"
>>> label_class("T336K")
"met"
>>> label_class("D162L")
"met"
>>> label_class("D284N")
"met"
>>> label_class("V390L")
"met"
>>> label_class("F255V")
"met"
>>> label_class("V173P")
"not met"
>>> label_class("N181G")
"not met"
